RUN DESCRIPTION: Drug release analysis: permeation from patch across Pion membrane in Franz cell
CONDITION DESCRIPTION: sample 2 hours, patch of the invention, PBS pH 7.4
The label depends only on Permeated drug amount: fulfilled if it is at least 10 μg cm^−2, not fulfilled if it is smaller.

Recorded results for 5 molecules are shown here.
CC(C(=O)O)c1cccc(C(=O)c2ccccc2)c1 (stereo not shown) [Ketoprofen]; not fulfilled
O=C(O)Cc1ccccc1Nc1c(Cl)cccc1Cl [Diclofenac]; not fulfilled
CN1CCCC1c1cccnc1 (stereo not shown) [Nicotine]; not fulfilled
CC(C)Cc1ccc(C(C)C(=O)O)cc1 (stereo not shown) [Ibuprofen]; fulfilled
O=C(O)c1ccccc1O [Salicylic acid]; fulfilled

Reported Permeated drug amount at or above 10 μg cm^−2? COC(=O)c1ccccc1O [Methyl salicylate]
fulfilled

Reported Permeated drug amount at or above 10 μg cm^−2? Cn1c(=O)c2c(ncn2C)n(C)c1=O [Caffeine]
not fulfilled

====

RUN DESCRIPTION: Drug release analysis: permeation from patch across Pion membrane in Franz cell
CONDITION DESCRIPTION: sample 6 hours, patch of the invention, PBS pH 7.4
The label depends only on Permeated drug amount: 1 if it is at least 50 μg cm^−2, -1 if it is smaller.

Recorded results for 4 molecules are shown here.
Cn1c(=O)c2c(ncn2C)n(C)c1=O; -1
O=C(O)Cc1ccccc1Nc1c(Cl)cccc1Cl; -1
COC(=O)c1ccccc1O [Methyl salicylate]; 1
CC(C)Cc1ccc(C(C)C(=O)O)cc1 (stereo not shown); 1

Reported Permeated drug amount at or above 50 μg cm^−2? O=C(O)c1ccccc1O
1

Reported Permeated drug amount at or above 50 μg cm^−2? CN1CCCC1c1cccnc1 (stereo not shown)
-1

Reported Permeated drug amount at or above 50 μg cm^−2? CC(C(=O)O)c1cccc(C(=O)c2ccccc2)c1 (stereo not shown)
-1

====

Would you kindly list Max. mass fraction for each of these compounds?
RUN DESCRIPTION: Solubility of drugs in the adhesive compositions / patches
CONDITION DESCRIPTION: grade A composition (Table 5)

Please state Max. mass fraction for every compound in the list that follows.
1. CN1C(C(=O)Nc2ccccn2)=C(O)c2ccccc2S1(=O)=O
2. [H]/N=C(\N/C(=N/[H])NCCCCCCNC(=N)NC(=N)Nc1ccc(Cl)cc1)Nc1ccc(Cl)cc1
3. CC(C(=O)O)c1ccc(-c2ccccc2)c(F)c1 (stereo not shown)
4. C[C@]12CC[C@H]3[C@@H](CCC4=CC(=O)CC[C@@]43C)[C@@H]1CC[C@@H]2O
5. CN(Cc1cnc2nc(N)nc(N)c2n1)c1ccc(C(=O)N[C@@H](CCC(=O)O)C(=O)O)cc1 [Methotrexate]

1. 2.5%
2. 3.5%
3. 15%
4. 5%
5. 7%

Please state Max. mass fraction for every compound in the list that follows.
1. COC(=O)c1ccccc1O [Methyl salicylate]
2. Cc1ccc2c(Cl)cc(Cl)c(O)c2n1

1: 30%; 2: 15%

====

RUN DESCRIPTION: Drug release analysis: permeation from patch across Pion membrane in Franz cell
CONDITION DESCRIPTION: sample 1 hours, patch of the invention, PBS pH 7.4
READOUT KIND: Permeated drug amount (μg cm^−2)
Numbers only, in μg cm^−2.

CC(C)Cc1ccc(C(C)C(=O)O)cc1 (stereo not shown); 15.46
Cn1c(=O)c2c(ncn2C)n(C)c1=O; 0.19
CN1CCCC1c1cccnc1 (stereo not shown); 2.26
COC(=O)c1ccccc1O [Methyl salicylate]; 18.25
O=C(O)c1ccccc1O; 3.38
O=C(O)Cc1ccccc1Nc1c(Cl)cccc1Cl; 0.11

Switching to the query record.
Any idea what its Permeated drug amount is? The molecule is CC(C(=O)O)c1cccc(C(=O)c2ccccc2)c1 (stereo not shown)
0.90

====

RUN DESCRIPTION: Solubility of drugs in the adhesive compositions / patches
READOUT KIND: Sol. type

Solved cases (8 shown):
O=C(C1CCCCC1)N1CC(=O)N2CCc3ccccc3C2C1 (stereo not drawn); Molecular
CC(=O)Oc1ccccc1C(=O)O; Dispersion
CCCNC(C)C(=O)Nc1ccccc1C (stereo not drawn); Dispersion
C[C@H]1[C@H](OC(=O)CCC(=O)O)O[C@@H]2O[C@@]3(C)CC[C@H]4[C@H](C)CC[C@@H]1[C@@]24OO3 [Artesunate]; Molecular
CC(C)(C)NCC(O)c1ccc(O)c(CO)c1 (stereo not drawn); Molecular
COc1ccc2c(c1)c(CC(=O)O)c(C)n2C(=O)c1ccc(Cl)cc1; Molecular
CN1C(C(=O)Nc2ccccn2)=C(O)c2ccccc2S1(=O)=O; Molecular
COc1cc(Cc2cnc(N)nc2N)cc(OC)c1OC; Dispersion

Any idea what its Sol. type is? The compound is CN1CCCC1c1cccnc1 (stereo not drawn)
Molecular

====

Would you kindly list Max. mass fraction for each of these compounds?
RUN DESCRIPTION: Solubility of drugs in the adhesive compositions / patches
Method: Three different grades of composition were employed in solubility experiments: A, B and C (see below). A is the grade which was used for initial studies and further was used as the standard grade for solubility tests. A sample of composition is pre-heated to 80° C. in a closed cartridge or inert environment to avoid contact with moisture and approximately 10 ml of the composition is added into a beaker and weighed. […]
One number for each entry, in %.

Solved cases (4 shown):
CN1CCCC1c1cccnc1 (stereo not shown); 30
O=C(O)c1ccccc1O; 30
O=C(Oc1ccccc1C(=O)O)c1ccccc1O [Salsalate]; 10
CC(=O)[C@H]1CC[C@H]2[C@@H]3CCC4=CC(=O)CC[C@]4(C)[C@H]3CC[C@]12C; 15

Please state Max. mass fraction for every compound in the list that follows.
1. CC(C)(C)NCC(O)c1ccc(O)c(CO)c1 (stereo not shown)
2. O=C(C1CCCCC1)N1CC(=O)N2CCc3ccccc3C2C1 (stereo not shown)
3. CC(C)[C@@H]1CC[C@@H](C)C[C@H]1O
4. C[C@H]1[C@H](OC(=O)CCC(=O)O)O[C@@H]2O[C@@]3(C)CC[C@H]4[C@H](C)CC[C@@H]1[C@@]24OO3 [Artesunate]

5
10
30
6

Please state Max. mass fraction for every compound in the list that follows.
1. COc1ccc2c(c1)c(CC(=O)O)c(C)n2C(=O)c1ccc(Cl)cc1
2. C[C@@H]1CC[C@H]2[C@@H](C)C(=O)O[C@@H]3O[C@@]4(C)CC[C@@H]1[C@]32OO4

[10, 9]

====

Would you kindly list Permeated drug amount for each of these molecules?
RUN DESCRIPTION: Drug release analysis: permeation from patch across Pion membrane in Franz cell
CONDITION DESCRIPTION: sample 4 hours, patch of the invention, PBS pH 7.4
Numbers only, in μg cm^−2.

Solved cases (5 shown):
CC(C(=O)O)c1cccc(C(=O)c2ccccc2)c1 (stereo not shown) [Ketoprofen]; 17.37
COC(=O)c1ccccc1O [Methyl salicylate]; 59.78
CC(C)Cc1ccc(C(C)C(=O)O)cc1 (stereo not shown) [Ibuprofen]; 73.85
O=C(O)Cc1ccccc1Nc1c(Cl)cccc1Cl [Diclofenac]; 0.39
Cn1c(=O)c2c(ncn2C)n(C)c1=O [Caffeine]; 3.26

Please state Permeated drug amount for every molecule in the list that follows.
1. CN1CCCC1c1cccnc1 (stereo not shown) [Nicotine]
2. O=C(O)c1ccccc1O [Salicylic acid]

[13.76, 31.75]

====

RUN DESCRIPTION: Solubility of drugs in the adhesive compositions / patches
CONDITION DESCRIPTION: grade A composition (Table 5)
READOUT KIND: Sol. type

Solved cases (4 shown):
C[C@]12C=CC(=O)C=C1CC[C@@H]1[C@@H]2[C@@H](O)C[C@@]2(C)[C@H]1CC[C@]2(O)C(=O)CO; Dispersion
Cc1ccc2c(Cl)cc(Cl)c(O)c2n1; Molecular
CC1(C)S[C@@H]2[C@H](NC(=O)Cc3ccccc3)C(=O)N2[C@H]1C(=O)O; Dispersion
C[C@]12CC[C@H]3[C@@H](CCC4=CC(=O)CC[C@@]43C)[C@@H]1CC[C@@H]2O; Molecular

Switching to the query record.
Any idea what its Sol. type is? The compound is C[C@@H]1[C@H](O)[C@@H](C)/C=C/C=C/CC/C=C/C=C/C=C/C=C/C(O[C@H]2O[C@H](C)[C@@H](O)[C@H](N)[C@@H]2O)CC2O[C@](O)(CC(O)C(O)CCC(O)CC(O)CC(O)CC(=O)O[C@H]1C)CC(O)C2C(=O)O (some centres unmarked)
Molecular

Measured values drawn from patent US11160764B2 for this set.
